Here, each record is paired with measured GI50 data.
- Tested on: SK-MEL-2
- assay_remarks: NCI tumour cell line growth inhibition, 48 h
The source made the active and inactive calls. No stated cut-off is given here; in the data, active = GI50 up to about 1.1 µM and inactive = higher.
measured_quantity: GI50

> print(dat)
                  compound.structure.string  measured.quantity       reported.value
1  S=C1/C(=N/c2ccccc2)N(c2ccccc2)/C(=N\c2ccccn2)N1c1ccccc1               GI50   11.9 µM (inactive)
2       CCOP(=O)(OCC)/C(C#N)=C/c1cc(O)ccc1O               GI50  > 100 µM (inactive)
3                          COC1=CC(=O)NCCN1               GI50  > 100 µM (inactive)
4                 CC#C[C@@]1(O)CCCC[C@@H]1O               GI50  > 100 µM (inactive)
5  N#Cc1ccc(-c2nc3c(N)nc(-c4ccccc4)nc3o2)cc1               GI50  > 100 µM (inactive)
6            CN(C)c1ccc2c3c(c(=O)oc2c1)CCC3               GI50  > 100 µM (inactive)

----------
Here, each record is paired with measured GI50 data.
- System: ACHN
- assay_remarks: NCI tumour cell line growth inhibition, 48 h
Activity calls are given as the source filed them. No stated cut-off is given here; in the data, active = GI50 up to about 1.1 µM and inactive = higher.
measured_quantity: GI50

> print(dat)
                                   compound       reported.value
1  CCOC(=O)c1c2ccc(/C=C/c3ccccn3)ccc-2c(C(=O)OCC)c1N   73.5 µM (inactive)
2  COc1cc(C2C(C#N)=C(N)OC3=C2CCS(=O)(=O)c2ccc(C)cc23)cc(OC)c1OC (stereo not drawn)  > 100 µM (inactive)
3  COc1c2nc(CCl)n(C)c(=O)c2c(OC)c2c(=O)n(C)c(CCl)nc12   1.19 µM (inactive)

----------
- System: 786-0
- assay_remarks: NCI tumour cell line growth inhibition, 48 h
The source made the active and inactive calls. No stated cut-off is given here; in the data, active = GI50 up to about 1.1 µM and inactive = higher.
Outcome codes: active, inactive

> print(dat)
                                    compound  classification
 1        O=c1oc2ccccc2cc1-c1cn2cc(Cl)ccc2n1          active
 2  Cc1ccc(/C=C/C(=O)c2sc(-n3nc(-c4ccccc4)cc3-c3ccccc3)nc2C)cc1        inactive
 3  COC(=O)c1ncc2c(=O)[nH]c3ccccc3c2c1C(=O)OC        inactive
 4  CN(C(=O)Cc1cc(Cl)c(Cl)cc1NC(=O)CCCN)[C@H]1CCCC[C@@H]1N1CCCC1        inactive
 5  NC(=S)N/N=C/C(O[C@@H](/C=N/NC(N)=S)CO)n1cnc2c(N)ncnc21 (stereo not given in full)        inactive
 6  O=C1/C(=C/c2ccccc2)CCC/C1=C\c1ccccc1 [2,6-DIBENZYLIDENECYCLOHEXANONE]        inactive
 7  CCC(=O)OC1CCn2c1nc1c2C(=O)C(C)=C(NC(C)=O)C1=O (stereo not given)        inactive
 8  COc1cc(N(CCC#N)CCC#N)ccc1C(/N=N/c1ccccc1C)=N\NC(=O)c1ccc(C)cc1        inactive
 9           Nc1nc(N)nc(CCCc2nc(N)nc(N)n2)n1        inactive
10           Cc1c(C)c2ccc3oc4ccccc4c3c2oc1=O        inactive

----------
- System: K562
- assay_remarks: NCI tumour cell line growth inhibition, 48 h
The source made the active and inactive calls. Rule as the data show it: active = GI50 up to about 1.1 µM and inactive = higher.
Here, each record is paired with measured GI50 data.
measured_quantity: GI50

molecule	reported_value
CC12CCC(O)CC1CCC1C2CCC2(C)C(C(=O)CC(O)C(F)(F)F)CCC12 (stereo not drawn)	3.8 µM (inactive)
CN(/N=C/c1cccc2cccnc12)c1ccc([N+](=O)[O-])cc1[N+](=O)[O-]	> 100 µM (inactive)
CC1C(c2ccc(Cl)cc2)c2cc3c(cc2OC1N1CCOCC1)OCO3 (stereo not drawn)	> 100 µM (inactive)
CC(=O)OCCCCn1cnc2c(Cl)nc(Nc3ccccc3)nc21	> 100 µM (inactive)
CC(C)(C)c1cc2c(O)c(c1)Cc1cc(C(C#N)(Cc3ccc4ccccc4c3)Cc3ccc4ccccc4c3)cc(c1O)Cc1cc(C(C)(C)C)cc(c1O)Cc1cc(C(C#N)(Cc3ccc4ccccc4c3)Cc3ccc4ccccc4c3)cc(c1O)C2	> 100 µM (inactive)
O=C1/C(=C/c2ccco2)NC(=S)N1CN1CCOCC1	> 100 µM (inactive)
O=C(NO)c1cccc(OCc2ccc(Br)cc2)c1	3.6 µM (inactive)
Cc1ccc(NC(=O)/C(=N\Nc2ccc([N+](=O)[O-])cc2[N+](=O)[O-])C2C(=O)NC(=O)NC2=O)cc1	26.2 µM (inactive)

----------
- System: HT-29
- assay_remarks: NCI tumour cell line growth inhibition, 48 h
Activity calls are given as the source filed them. No stated cut-off is given here; in the data, active = GI50 up to about 1.1 µM and inactive = higher.
Outcome codes: true (1) = active, false (0) = inactive

> print(dat)
                                    compound  classification
 1  Nc1c(C(=O)c2ccc(Cl)cc2)[nH]c(Nc2ccc(Cl)cc2)c1C(=S)Nc1ccccc1       false (0)
 2  NC(=O)c1cn(C2OC(CO)C(O)C2O)c(=O)[nH]c1=O (centres undefined)       false (0)
 3              FC1CCN(C2(c3cccs3)CCCCC2)CC1       false (0)
 4  COc1ccc(-c2c3c([nH]c(=S)c2C#N)CC(C)(C)CC3=O)cc1       false (0)
 5     Cc1ccc(S(=O)(=O)NN=C2CCCCCCCCCCC2)cc1       false (0)
 6  COc1cc2c(cc1O)CC[C@@H]1C2CC[C@@]2(C)C1CC[C@@H]2O (some centres undefined)       false (0)
 7  CC(C)CCCC(C)[C@H]1CCC2[C@@H]3CCC4Nc5c(cnn5-c5ccccc5)C[C@]4(C)C3CC[C@@]21C (some centres undefined)       false (0)
 8  CC1/C(=N\O)CC(c2ccccc2)N(C)C1c1ccccc1 (centres undefined)       false (0)
 9  CC1(C)OC(=O)[C@@](C)([C@H](O)c2ccccc2)O1       false (0)
10  COc1cc(/C=C2/C(=O)N(C(=O)OC(C)C)C(Cc3cc(OC)c(OC)c(C)c3OC)C(=O)N2Cc2ccccc2)c(OC)c(C)c1OC (centres undefined)       false (0)
11         CCc1nc(N)nc(N)c1-c1ccc(Cl)c(Cl)c1        true (1)
12  COC1=C(Br)[C@H](O)[C@@]2(C=C1Br)CC(C(=O)NCCCOc1c(Br)cc(C(O)CNC(C)=O)cc1Br)=NO2 (some centres undefined)       false (0)
13      CCOC(=O)C1=C(c2ccccc2)N(C)c2ccccc2S1       false (0)
14  O=S1(=O)CCN(c2ccccc2CC(c2c[nH]c3ccccc23)c2c[nH]c3ccccc23)CC1       false (0)

----------
Here, each record is paired with measured GI50 data.
- Tested on: UACC-257
- assay_remarks: NCI tumour cell line growth inhibition, 48 h
Active and inactive are the calls of the source. Cut-off read from the data, not from the text of the source: active = GI50 up to about 1.1 µM and inactive = higher.
measured_quantity: GI50

> print(dat)
                                   molecule  test.target       reported.value
1         CN(C)C(=S)N=C(Nc1ccccc1)Nc1ccccc1     UACC-257  > 100 µM (inactive)
2  Cc1[nH]c2c(c1Cc1ccccc1)C1=NC=C(O)NN1C=N2     UACC-257  > 100 µM (inactive)
3  CC(C)(Br)C(Br)CCC1(C2CO2)CO1 (configuration not stated)     UACC-257    > 5 µM (inactive)
4  CCOC(=O)c1c(-c2ccccc2)c(C(OC(c2ccccc2)c2c(-c3ccccc3)c(C(=O)OCC)n3ccccc23)c2ccccc2)c2ccccn12 (configuration not stated)     UACC-257  > 100 µM (inactive)
5  COc1cc(N(CCC#N)CCC#N)ccc1C(/N=N/c1ccccc1C)=N\NC(=O)c1ccc(C)cc1     UACC-257   61.2 µM (inactive)
6               N#Cc1c(C(N)=O)ncn1Cc1ccccc1     UACC-257  > 100 µM (inactive)
7   CNNC(=NS(=O)(=O)c1cc(C#N)c(NNC)cc1S)NNC     UACC-257   > 10 µM (inactive)

----------
- System: 786-0
- assay_remarks: NCI tumour cell line growth inhibition, 48 h
Active and inactive are the calls of the source. No stated cut-off is given here; in the data, active = GI50 up to about 1.1 µM and inactive = higher.
Outcome codes: active, inactive

> print(dat)
                                   compound  test.target  classification
1  CC1=C2C3OC(=O)C(C)C3C(O)C[C@@]2(C)C(=O)CC1 (stereo partly specified)        786-0        inactive
2  O=C(O)C1CC2C3CCC2C1C3=O (stereo unspecified)        786-0        inactive
3  COc1c2nc(CCl)n(C)c(=O)c2c(OC)c2c(=O)n(C)c(CCl)nc12        786-0          active
4  Nc1ccc(C(=O)Nn2c(-c3ccccc3)nc3ccccc3c2=O)cc1        786-0        inactive
5  C/N=C(\Nc1cccc(C(F)(F)F)c1)SCc1ccc(N=C=S)cc1        786-0        inactive
6  Nc1ccn(C2OC(COC(=O)C34CC5CC(CC(C5)C3)C4)C(O)C2O)c(=O)n1 (stereo unspecified)        786-0        inactive
